Let's look at some sequences and their measured protein stability index.
# test description: protein stability index of a GFP-peptide fusion (GPS, HEK-293T) (PSI 1-6); higher = more stable;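 further: 24-mer peptide tiles fused after GFP, lentivirally expressed, FACS-sorted into six equal bins by GFP/DsRed ratio, decoded by Illumina sequencing, PSI is the read-weighted mean bin number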
# measurement context: treatment: DMSO; c terminus: a fixed tail appended

[
  {
    "query sequence": "NTQTPVQPPPPPPPPPMQPTVPSA [CCDC6]",
    "protein stability index": 5.05
  },
  {
    "query sequence": "ATKKLGFKHPVIGVHVRRTDKVGT [FUT8]",
    "protein stability index": 3.12
  },
  {
    "query sequence": "EFTIRDLQRLGELQSELAGVADFS [INTS4]",
    "protein stability index": 3.3
  },
  {
    "query sequence": "FLCAAGDAGEESRVQVLKNEVRRG [TIAF1]",
    "protein stability index": 4.18
  },
  {
    "query sequence": "GSVADTVARVLRGCLENMPEADCI [PLK2]",
    "protein stability index": 2.88
  },
  {
    "query sequence": "PGPPAAPRARRRLGSGPDRELRKP [PWWP2B]",
    "protein stability index": 5.03
  },
  {
    "query sequence": "LHAAAAGGNVECIKLLQSSGADFH [ANKRD44]",
    "protein stability index": 3.37
  },
  {
    "query sequence": "IMDANQTYLVSERLEREERNQTQV [FAF2]",
    "protein stability index": 4.16
  }
]

* * *

# test description: protein stability index of a GFP-peptide fusion (GPS, HEK-293T) (PSI 1-6); higher = more stable
# measurement context: treatment: DMSO; c terminus: a fixed tail appended

[
  {
    "query sequence": "LQLGDGGGCTVGVAGEGVRRKGEM [TRIM15]",
    "protein stability index": 4.71
  },
  {
    "query sequence": "SELPPPMERTGGIGDSRPPSFHPH [DVL3]",
    "protein stability index": 4.55
  },
  {
    "query sequence": "QRAEMLPKTSGTRATSLGRPEEEE [CPOX]",
    "protein stability index": 5.47
  },
  {
    "query sequence": "GSARYDFSHEILRDEESFFGERRI [ALKBH7]",
    "protein stability index": 3.75
  },
  {
    "query sequence": "KATASEAVDCKWYIRAPPRSKIYL [NETO1]",
    "protein stability index": 2.23
  },
  {
    "query sequence": "SPEALSLGEVAYHDYHGILVDEEE [ADD1]",
    "protein stability index": 5.58
  },
  {
    "query sequence": "ASLKGYQWLKDKILSEEGRRQQAK [KCNAB2]",
    "protein stability index": 3.69
  }
]

* * *

# test description: protein stability index of a GFP-peptide fusion (GPS, HEK-293T) (PSI 1-6); higher = more stable
# measurement context: treatment: DMSO; c terminus: a fixed tail appended
Param threshold (3) applies to protein stability index; output fulfilled when value >= threshold, not fulfilled when value < threshold.

[
  {
    "query sequence": "LRSPNNFLSYYRLTRFLSRVIKCD [CCND1]",
    "category label": "not fulfilled"
  },
  {
    "query sequence": "TSPSSNNSSEELSSALHLSKGMSI [NECAB1]",
    "category label": "fulfilled"
  },
  {
    "query sequence": "ASVLLQAVLYPRFMGTISDVKTNV [CD207]",
    "category label": "not fulfilled"
  },
  {
    "query sequence": "LPEDDGLEQDLQQVMVSGPNLNET [ARFIP2]",
    "category label": "fulfilled"
  },
  {
    "query sequence": "WGKRKNKPKMNYEKLSRGLRYYYD [ETS2]",
    "category label": "not fulfilled"
  },
  {
    "query sequence": "APPSPRDISMEIDSPENMMRHIRF [CCDC6]",
    "category label": "fulfilled"
  },
  {
    "query sequence": "LGLETLKITDFQLHASTVKRYGLG [CPXM2]",
    "category label": "not fulfilled"
  },
  {
    "query sequence": "QRVKLKLWDTSGQGRFCTIFRSYS [RAB40A]",
    "category label": "not fulfilled"
  },
  {
    "query sequence": "EECIPEHMVRESKIMEAESQKATR [FAN1]",
    "category label": "fulfilled"
  },
  {
    "query sequence": "QYSSHHTAEKRKRLGELFNPYYDP [CHGB]",
    "category label": "fulfilled"
  },
  {
    "query sequence": "AIKEMIENCLDAKSTSIQVIVKEG [MLH1]",
    "category label": "not fulfilled"
  },
  {
    "query sequence": "SDAANRNHEALRQAKQEMNESRRQ [PRPH]",
    "category label": "fulfilled"
  },
  {
    "query sequence": "FEEPEDPSNRSFFSEIISSISDVK [PPP2R2B]",
    "category label": "fulfilled"
  },
  {
    "query sequence": "SIFGICMVFSGLCPLLLGSVMAIE [PTGFR]",
    "category label": "fulfilled"
  },
  {
    "query sequence": "EEEEEATNTHPPASLPSQKYPGPQ [CHGA]",
    "category label": "fulfilled"
  },
  {
    "query sequence": "LEEGDELQLAIPRENAQISLDGDV [TNFSF13B]",
    "category label": "fulfilled"
  },
  {
    "query sequence": "PWGFRLQGGKDFNVPLSISRLTPG [PDLIM7]",
    "category label": "not fulfilled"
  },
  {
    "query sequence": "AIGVSISLSSIATCVYIAEIAPQH [SLC2A12]",
    "category label": "fulfilled"
  },
  {
    "query sequence": "SLEQANRSLQLRIQELELQAQIHG [TFE3]",
    "category label": "fulfilled"
  },
  {
    "query sequence": "FREVYVGKETMCTVDGLHFNSTYN [TRIM9]",
    "category label": "not fulfilled"
  },
  {
    "query sequence": "LPFRDASFGNCTYNLTILDCLQGI [CDC14A]",
    "category label": "not fulfilled"
  },
  {
    "query sequence": "SLVIGALLASLTGGVLIDRYGRRT [SLC2A12]",
    "category label": "not fulfilled"
  },
  {
    "query sequence": "LSRAYDGTTYLPGIVGLNNIKAND [USP39]",
    "category label": "fulfilled"
  },
  {
    "query sequence": "LPNHRAAKRLWKVCVEHHTFFRLL [EPB41L3]",
    "category label": "not fulfilled"
  },
  {
    "query sequence": "AQTFIALCATDFKFAMYPPSMIAT [CCND2]",
    "category label": "not fulfilled"
  },
  {
    "query sequence": "LAIQEMVSLTSPSAPPTSRTSSGN [PPFIA4]",
    "category label": "fulfilled"
  },
  {
    "query sequence": "DSPENGADSFESSDSLLQSWNSQS [ETS2]",
    "category label": "fulfilled"
  },
  {
    "query sequence": "DCSEEYLERQLQAEFIESGQYRAN [TAF7L]",
    "category label": "fulfilled"
  },
  {
    "query sequence": "WYQVRCLFQSPLFAKAGDTLSGTC [CARM1]",
    "category label": "not fulfilled"
  },
  {
    "query sequence": "NMLFQQNKDGIGEICLWGRHIFMG [ACSBG2]",
    "category label": "not fulfilled"
  },
  {
    "query sequence": "KKIQVNSKPSIQPKPLLLPAAPKT [ATF6]",
    "category label": "fulfilled"
  },
  {
    "query sequence": "NPNSSSGKGSGGNAGSYIPSYTSW [DLX1]",
    "category label": "fulfilled"
  },
  {
    "query sequence": "QLEVTCTPYLKETLNSIWNVEDHI [POMT2]",
    "category label": "not fulfilled"
  },
  {
    "query sequence": "EPDANFPQFLHEGLSKPVYVINWF [FAM104B]",
    "category label": "not fulfilled"
  },
  {
    "query sequence": "GQTSGAREPPQAVSIKEAAGSSNL [VENTX]",
    "category label": "fulfilled"
  },
  {
    "query sequence": "HLSGSHNTLAPTCFKAKLHRKRGS [RSPH3]",
    "category label": "fulfilled"
  },
  {
    "query sequence": "EVSNPSKPGRKTNQLQYMQNVVVK [BRD3]",
    "category label": "fulfilled"
  },
  {
    "query sequence": "WEYPGSQGSPAVDKERFTTLVQDL [CHIT1]",
    "category label": "fulfilled"
  },
  {
    "query sequence": "LNLEEDRIQIWFQNRRAKLKRSHR [HESX1]",
    "category label": "not fulfilled"
  },
  {
    "query sequence": "QPGTNCALAIKVNLCGHWYYSKAC [ADAMTSL2]",
    "category label": "not fulfilled"
  },
  {
    "query sequence": "RSKSGSEEVLCDSCIGNKQKAVKS [TRIM29]",
    "category label": "fulfilled"
  },
  {
    "query sequence": "SYFDRGAKGGSRLCTPEGWFSCQG [DFFB]",
    "category label": "not fulfilled"
  },
  {
    "query sequence": "EVLREQAGGDATENFEDVGHSTDA [CYB5A]",
    "category label": "fulfilled"
  }
]
